FYI, the data here is from patent US12448399B2.

Would you mind telling me the reported DC50 of each entry?
- Subject Of Test: KRas-G12D (Homo sapiens, UniProt P01116, G12D)
- Construct: insert the HiBiT tag onto the N-terminus of one or more of the endogenous KRas alleles; host or cells: AsPC-1 HiBiT-KRasG12D knock-in clone (one tagged allele, two untagged KRasG12D alleles)
- Sequence (P01116 1-188 isoform P01116-2 G12D): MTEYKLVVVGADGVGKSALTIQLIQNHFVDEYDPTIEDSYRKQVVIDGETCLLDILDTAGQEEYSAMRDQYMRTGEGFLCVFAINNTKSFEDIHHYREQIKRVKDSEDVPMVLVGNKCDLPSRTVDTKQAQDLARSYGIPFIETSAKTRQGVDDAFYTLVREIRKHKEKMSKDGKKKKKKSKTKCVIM
- Procedure Summary: HiBiT Degradation Assay (G12D), AsPC-1 HiBiT-KRasG12D cells, 24 hr
- Type: cell-based
- Assay Setup: AsPC-1 cells

Sample answers from the record:
| Molecule | Measure Name | Value Observed |
| --- | --- | --- |
| C#Cc1c(F)ccc2cc(O)cc(-c3ncc4c(N5CC6CCC(C5)N6)nc(OCCN5CCC(CN6CCN(CC7CCN(c8ccc9c(c8Cl)CN(C8CCC(=O)NC8=O)C9=O)CC7)CC6)CC5)nc4c3F)c12 (stereo not drawn) [Compound 219] | DC50 | < 5.1 µM |
| C#Cc1c(F)ccc2cc(O)cc(-c3ncc4c(N5CC6CCC(C5)N6)nc(OC[C@@H]5C[C@@H](OC6CCN(CC7CCN(c8cc(F)c9c(c8F)n(C)c(=O)n9C8CCC(=O)NC8=O)CC7)CC6)CN5C)nc4c3F)c12 (stereo partly drawn) [Compound 201] | DC50 | < 5.1 µM |

DC50 recorded for this molecule, CCc1cccc2cc(O)cc(-c3ncc4c(N5CC6CCC(C5)N6)nc(OC[C@]56CCCN5[C@@H](COC(=O)N5CCN(c7ccc8c(c7)C(=O)N(C7CCC(=O)NC7=O)C8=O)CC5)CC6)nc4c3F)c12 (stereo partly drawn) [Compound 63] , is 0.25 to 1 µM
